The origin of these recorded values is paper PMC5538626.

Target: LC3B (for ITC and NMR) (human), Q9GZQ8
Experiment: ITC; peptide 0.4 mM titrated into 0.020 mM LC3/GABARAP protein in 26 steps, 25°C; 50 mM Na2HPO4, 100 mM NaCl, pH 7.0; one-site model
measured.property: Kd

[
  {
    "binder": "PQQEDEAVNVQYPD (modifications not checked) [PLEKHM1‐LIR W635A peptide (ITC), Q9Y4G2 629-642]",
    "measured.property": "Kd",
    "recorded.result": "> 100 µM"
  }
]

Now for the binder whose Kd we want.
Kindly note the recorded Kd for PQQEDEWGNVQYPD (modifications not checked) [PLEKHM1‐LIR V636G peptide (ITC), Q9Y4G2 629-642] , which is > 100 µM
